Tested on: Bacillus pumilus strain K-1
test: Inhibition of bacterial growth, filter paper on inoculated agar plates
Type: cell-based
condition info: Bacillus pumilus, K1, Table II; 10^-4 molar, 26° C., forty-eight hours; read-out: Diameter of Inhibition
Protocol: Nutrient broth was prepared by mixing 8 grams of BACTO dehydrated nutrient broth per liter of distilled water. […] Samples of the nutrient broth were then inoculated with Bacillus pumilus strain K-1 culture. […] Nutrient agar was prepared by mixing 23 grams of BACTO nutrient agar per liter of distilled water. The nutrient agar was sterilized in the same way as the nutrient broth. After it has cooled to about 45° C. […]
For each of the compounds below, state its zone of inhibition at 100 µM.
Numbers only here, please. The scale is mm.

INPUT: Request the reported zone of inhibition at 100 µM associated with CCN1C(=CC=Cc2oc3ccccc3[n+]2CC)Oc2ccccc21
OUTPUT: 25.5

INPUT: Record request: zone of inhibition at 100 µM value, item CCN1C(=CC=Cc2sc3ccccc3[n+]2CC)Sc2ccccc21
OUTPUT: 16.5

INPUT: Fill in: zone of inhibition at 100 µM of CCN1C(=Cc2ccc3ccccc3[n+]2CC)C=Cc2ccccc21 is ___
OUTPUT: 25.5

INPUT: Need zone of inhibition at 100 µM, item CCN1C(=CC=Cc2scc(-c3ccccc3)[n+]2CC)SC=C1c1ccccc1
OUTPUT: 19

INPUT: Entry under review: CCN1C(=Cc2sc3ccccc3[n+]2C)C=Cc2ccccc21 . Reported zone of inhibition at 100 µM?
OUTPUT: 15

INPUT: Looking for the measured zone of inhibition at 100 µM of CCC(=Cc1sc2ccc(Cl)cc2[n+]1CC)C=C1Sc2ccc(Cl)cc2N1CC , can you help?
OUTPUT: 13.5

INPUT: Item CCN1C(=CC=CC=Cc2sc3ccccc3[n+]2CC)Sc2ccccc21 has what recorded zone of inhibition at 100 µM?
OUTPUT: 15

INPUT: What value of zone of inhibition at 100 µM has been recorded for this entry: CCN1C(=CN=Nc2sc3ccccc3[n+]2CC)Sc2ccccc21
OUTPUT: 14.5

INPUT: # zone of inhibition at 100 µM lookup, item CCN1C(=CC(C)=Cc2sc3ccccc3[n+]2CC)Sc2ccccc21
OUTPUT: 18
